target: CK1γ1 (Homo sapiens, UniProt Q9HCP0); experiment: CK1γ1 NanoBRET assay with tracer 23, intact cells; type: cell-based; conditions: NB IC50 CK1γ1, tracer 23; intact HEK293 cells; N = 1
Sequence (Q9HCP0 whole entry): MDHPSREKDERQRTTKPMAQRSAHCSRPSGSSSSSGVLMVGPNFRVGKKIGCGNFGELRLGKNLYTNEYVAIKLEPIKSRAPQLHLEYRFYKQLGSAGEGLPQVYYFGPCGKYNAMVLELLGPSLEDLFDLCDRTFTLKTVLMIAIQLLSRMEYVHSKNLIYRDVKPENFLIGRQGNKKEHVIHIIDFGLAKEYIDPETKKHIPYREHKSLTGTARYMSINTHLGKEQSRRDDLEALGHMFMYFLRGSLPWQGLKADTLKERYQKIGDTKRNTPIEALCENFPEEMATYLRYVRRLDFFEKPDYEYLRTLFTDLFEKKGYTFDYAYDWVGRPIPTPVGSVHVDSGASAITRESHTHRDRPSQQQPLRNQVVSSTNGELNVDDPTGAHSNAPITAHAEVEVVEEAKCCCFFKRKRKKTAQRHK
Output 1 for records whose IC50 is lower than 600 nM, 0 for records at or above 600 nM.

These solved cases illustrate the format of a correct answer.
>>> class_assignment("CN1CCN(c2ccc(Nc3nc4ccc(C#N)cc4[nH]3)cc2Cl)CC1")
1
>>> class_assignment("N#Cc1ccc2nc(Nc3ccc(N4CCOCC4)c(F)c3)[nH]c2c1")
0

Record COc1cc(N2CCOCC2)ccc1Nc1nc2ccc(C#N)cc2[nH]1 : is its IC50 strictly below 600 nM?
0

Record N#Cc1ccc2nc(Nc3ccc(N4CCOCC4)c(Cl)c3)[nH]c2c1 : is its IC50 strictly below 600 nM?
1

Record N#Cc1ccc2nc(Nc3ccc(N4CCOCC4)cc3)[nH]c2c1 : is its IC50 strictly below 600 nM?
0

Record N#Cc1ccc2nc(Nc3ccc(N4CCOCC4)c(Br)c3)[nH]c2c1 : is its IC50 strictly below 600 nM?
1

Record N#Cc1ccc2nc(Nc3cc(F)c(N4CCOCC4)c(F)c3)[nH]c2c1 : is its IC50 strictly below 600 nM?
0

Record N#Cc1ccc2nc(Nc3ccc(N4CCOCC4)c(C(F)(F)F)c3)[nH]c2c1 : is its IC50 strictly below 600 nM?
0

Record N#Cc1ccc2[nH]c(Nc3ccc(N4CCCCC4)c(Cl)c3)nc2c1 : is its IC50 strictly below 600 nM?
1
